Experiment: activity coefficient (dimensionless); of the first substance listed, at infinite dilution; xn = mol fraction of the nth substance listed
Conditions: 358.15 K; 100 kPa; Liquid; Chromatography; x1 = 0
Response key: label 1 means activity coefficient >= 4; label 0 means activity coefficient < 4.

1. c1ccncc1 [pyridine] + CCCC[n+]1ccc(C#N)cc1.O=S(=O)([N-]S(=O)(=O)C(F)(F)F)C(F)(F)F: label 0

// inclusive: activity coefficient at least 4? input: C=CCCCCCCCC [1-decene] + CCCC[n+]1ccc(C#N)cc1.O=S(=O)([N-]S(=O)(=O)C(F)(F)F)C(F)(F)F
label 1

// inclusive: activity coefficient at least 4? input: CCCCO [butan-1-ol] + CCCC[n+]1ccc(C#N)cc1.O=S(=O)([N-]S(=O)(=O)C(F)(F)F)C(F)(F)F
label 0

// inclusive: activity coefficient at least 4? input: C=CCCCC [hex-1-ene] + CCCC[n+]1ccc(C#N)cc1.O=S(=O)([N-]S(=O)(=O)C(F)(F)F)C(F)(F)F
label 1

// inclusive: activity coefficient at least 4? input: c1ccsc1 [thiophene] + CCCC[n+]1ccc(C#N)cc1.O=S(=O)([N-]S(=O)(=O)C(F)(F)F)C(F)(F)F
label 0

// inclusive: activity coefficient at least 4? input: CC(C)=O [acetone] + CCCC[n+]1ccc(C#N)cc1.O=S(=O)([N-]S(=O)(=O)C(F)(F)F)C(F)(F)F
label 0

// inclusive: activity coefficient at least 4? input: CCCc1ccccc1 [propylbenzene] + CCCC[n+]1ccc(C#N)cc1.O=S(=O)([N-]S(=O)(=O)C(F)(F)F)C(F)(F)F
label 1

// inclusive: activity coefficient at least 4? input: CCCCCCCC [octane] + CCCC[n+]1ccc(C#N)cc1.O=S(=O)([N-]S(=O)(=O)C(F)(F)F)C(F)(F)F
label 1
